Where do these numbers come from? They come from paper PMC10812921.

# System Under Test: POU2 (OCT2 POU domain);BOB1 (OBF1, OCA-B) (human;human, UniProt P09086;Q16633 175-386;1-256, |)
# Sequence 1: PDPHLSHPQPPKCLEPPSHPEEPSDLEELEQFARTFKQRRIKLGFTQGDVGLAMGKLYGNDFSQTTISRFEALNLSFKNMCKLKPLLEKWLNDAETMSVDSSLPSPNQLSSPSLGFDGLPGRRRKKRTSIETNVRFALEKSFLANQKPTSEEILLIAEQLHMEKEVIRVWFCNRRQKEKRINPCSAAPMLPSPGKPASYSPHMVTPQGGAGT
# Sequence 2: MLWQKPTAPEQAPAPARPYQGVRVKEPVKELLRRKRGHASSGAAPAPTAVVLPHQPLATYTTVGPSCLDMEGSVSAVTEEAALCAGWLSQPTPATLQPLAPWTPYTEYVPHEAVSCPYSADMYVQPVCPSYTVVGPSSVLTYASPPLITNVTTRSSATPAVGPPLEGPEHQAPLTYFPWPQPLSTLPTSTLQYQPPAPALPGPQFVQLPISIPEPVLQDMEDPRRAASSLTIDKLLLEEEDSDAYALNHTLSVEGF
# Assay Notes: EMSA-SELEX-seq; with BOB1 (ternary complex band); 20 mM Tris-HCl pH 7.6, 140 mM NaCl, 10% glycerol, 0.5 mM EDTA, 0.05% Triton X-100, 0.1 mg/mL BSA, 0.1 mg/mL poly(dI-dC), 5 mM DTT, room temperature, 20 min; high values mean tight binding
# Settings: protein: recombinant;recombinant; copies: 1;1; dsDNA, one strand shown
Result Type: binding signal

In the examples that follow, each entry is paired with its recorded binding signal.
| Sequence Record | binding signal |
| --- | --- |
| AGTTTAAG | 0.0504 % of ANNNNAAN 8-mers |
| ACGGTAAC | 0.0239 % of ANNNNAAN 8-mers |
| ACGACAAT | 0.0297 % of ANNNNAAN 8-mers |
| AACAGAAT | 0.0594 % of ANNNNAAN 8-mers |
| ACACAAAA | 0.0363 % of ANNNNAAN 8-mers |
| AGTTTAAC | 0.033 % of ANNNNAAN 8-mers |
| ACGGGAAC | 0.0231 % of ANNNNAAN 8-mers |
| AAGGTAAC | 0.0322 % of ANNNNAAN 8-mers |

Query string: Which binding signal is reported for this sequence? `AACTAAAA`
Result string: 0.0305 % of ANNNNAAN 8-mers
